Reference source: patent US7329737

Known pKd of a selection of binders
# Target Entity: T1, hK1 (human tissue kallikrein 1), recombinant (human, UniProt P06870 25-262)
# T1 construct: Expressed in P. pastoris from KLK1 cDNA and purified; enzymatically active; also called KLK1; Recombinant (Pichia) Kallikrein
# Assay Overview: SPR
# pKd: negative log10 of molar concentration; output just the value

Before answering, review these 3 worked examples.
{"Binder": "M0136-E12 (Fab, V domains shown) VH: EVQLLESGGGLVQPGGSLRLSCAASGFTFSNYSMQWVRQAPGKGLEWVSSIGPSGGRTWYADSVKGRFTISRDNSKNTLYLQMNSLRAEDTAVYYCARVGVWYGMDVWGQGTTVTVSS VL: DIQMTQSPSSLSASVGDRVTITCRASHVINIDLGWYQQKPGKAPKLLIYGASHLQRGVPSRFSGSGSGTVFTLTISGLQPEDFATYYCLQDSFYPRTFGQGTRLEIKR", "pKd": 8.65}
{"Binder": "M0121-A07 (Fab, V domains shown) VH: EVQLLESGGGLVQPGGSLRLSCAASGFTFSHYLMYWVRQAPGKGLEWVSRIYPSGGATSYADSVKGRFTISRDNSKNTLYLQMNSLRAEDTAVYYCAKSGSWYSFDYWGQGTLVTVSS VL: DIQMTQSPGTLSLSPGERATLSCRASQSVSSNYLAWYQQKPGQAPRLLMYGASYRATGIPDRFSGSGSGTDFTLTISSLQPEDFATYYCQQSYSTPWTFGQGTKVEIKR", "pKd": 8.32}
{"Binder": "M0093-C02 (Fab, V domains shown) VH: EVQLLESGGGLVQPGGSLRLSCAASGFTFSWYAMHWVRQAPGKGLEWVSWISPSGGQTKYADSVKGRFTISRDNSKNTLYLQMNSLRAEDTAVYYCARAKVLRYFDWLLGGDAFDIWGQGTMVTVSS VL: DIQMTQSPGTLSLSPGDRATLSCRASQSVGSDYLAWYQQKPGQAPRLLIFAASTRATGIPDRFSGSGSATDFTLTISSLEPEDFAVYFCQQYASPPRTFGQGTKVEIKR", "pKd": 8.24}

Which measured pKd value corresponds to M0097-F04 (Fab, V domains shown) VH: EVQLLESGGGLVQPGGSLRLSCAASGFTFSPYQMWWVRQAPGKGLEWVSSISSSGGLTRYADSVKGRFTISRDNSKNTLYLQMNSLRAEDMAVYYCARVKLNYYGSGSYSLDAFDIWGQGTNGHRLKRLHQGPIGLPASTLLQEH VL: AQYELTQPPSASGTPGQRVTISCSGSSSNIGSNYVHWYQQLPGTAPKLLIYRNNRRPSGVPDRFSGSKSGTSASLAISGLRSEDEADYYCAAWDDSLSGLVVFGGGTKLTVLGQPKAAP ?
8.49

What does the record list as pKd for M0131-G03 (Fab, V domains shown) VH: EVQLLESGGGLVQPGGSLRLSCAASGFTFSHYVMQWVRQAPGKGLEWVSSIYPSGGSTRYADSVKGRFTISRDNSKNTLYLQMNSLRAEDTAMYYCARFNVGFDLWGRGTLVTVSS VL: AQSELTQPPSASGSPGQSLTISCTGGRRDIGNYNYVSWYQQHPGKAPRLIIYDVRKRPSGVPDRFSGSKSGNVAFLTVSGLQTDDEADYYCGSYTGTSNVFGSGTTVTVLG ?
8.13
